These data points were gathered from paper PMC5540273.

Tested on: LKB1;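 further: KINOMEscan kinase panel screen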
Construct: gene STK11
condition_parameters: concentration: 1 μM, replicates: in singlicate; n = 1
quantity_kind: %Inh (%)

1. CC(C)(C)c1ccc(C(=O)Nc2cn3cc(-n4ccnc4)ccc3n2)cc1 | 0
2. COC(=O)Nc1nc2ccc(Oc3ccc(CC(=O)Nc4cc(C(F)(F)F)ccc4F)cc3)cc2[nH]1 [GW680903] | 0
3. Cc1nn2c(=O)cc(N3CCO[C@H](C)C3)nc2n1Cc1cccc(Cl)c1Cl [GSK2373693] | 0
4. CCn1cnc2c(NCc3ccccc3)ncnc21 [SKF-96418] | 25
5. O=C(Nc1n[nH]c2cc(-c3cccs3)ccc12)C1CC1 [SB-731284] | 10
6. CN(C)CCOc1ccc(-c2cc(-c3ccc(Cl)c(O)c3)c(-c3ccncc3)[nH]2)cc1.Cl.Cl [SB-684387] | 20
7. CN1CCN(Cc2ccc(NC(=O)Nc3ccc(N(C)c4ccnc(Nc5ccc(CS(C)(=O)=O)cc5)n4)cc3)cc2)CC1.Cl [GW827654] | 17
8. O=C(Nc1n[nH]c2nc(-c3cccc(O)c3)ccc12)C1CC1 [SB-711805] | 14
9. O=C(O)C(F)(F)F.O=c1[nH]ccc2nc(N[C@@H]3CCNC3)nc(Nc3cc(Cl)cc(Cl)c3)c12 [GSK2188764] | 43
10. CN(c1ccc(NC(=O)Nc2cccc(Cl)c2)cc1)c1ccnc(N)n1.Cl [GW830707] | 20
11. O=C(Nc1n[nH]c2nc(-c3ccccc3O)ccc12)C1CC1 [SB-711880] | 22
12. CN(c1ccc2c(c1)nc(NCc1ccccc1)n2C)c1ccnc(Nc2ccc(CS(C)(=O)=O)cc2)n1.Cl [GW811603] | 0
13. N#CC1(c2cccc(C(=O)Nc3cccc(Oc4ccc5nc(NC(=O)C6CC6)sc5n4)c3)c2)CC1 | 0
14. Cc1cccc(Nc2nc(NCCN)ncc2C(N)=O)c1 [GSK1292139] | 24
15. COc1cc(Nc2nccc(N3CCC(NC(=O)Nc4ccc5c(c4)OCO5)C3)n2)cc(OC)c1OC (stereo not shown) [GSK1379766] | 0
16. Fc1cc(Cl)ccc1Nc1ccnc2cc(-c3ccc(CN4CCSCC4)o3)ccc12 [GW560106] | 11
